Data origin: ChEMBL document CHEMBL4483862

- System: Plasmodium berghei
- experimental_details: Luciferase/luciferin-expressing antifolate-resistant parasites were used to infect a culture of HepG2 cells that were pre-incubated with compounds. Infected hepatocytes emit light due to the luciferase reaction. Assay results are presented as the percent inhibition of light emission compared to control. […]
- Type: functional
- condition_description: sporozoite, PBLUC_HILL_SLOPE 1.58, PBLUC_R_SQUARED 0.267, read-out: LUCIFERASE INFECTION ASSAY - IC50
pIC50: −log10 of the molar value.
property_name: pIC50

[[record]]
compound = "COc1ccc(/C=C2\\CCCC3C2=NN(C(=O)CSc2ccccn2)C3c2ccc(OC)cc2)cc1 (stereo unspecified)"
reported_value = 5.61

